Test: in vitro; further: reference of the scale not given here
Details: human, hepg2-a16-cd81egfp cells, % viability
The reader will find reported viability at 3 µM values listed item by item below.
observed_property: viability at 3 µM

>  <compound>
COc1cccc(NC(=O)CN(C)C(=O)c2ccc(-c3cccc(C(F)(F)F)c3)o2)c1

>  <data_value>
90.3%

$$$$
>  <compound>
COc1cc(O)c(C(CCN2CCCCC2)c2ccc(N(C)C)cc2)c(OC)c1 (stereo not shown)

>  <data_value>
92.4%

$$$$
>  <compound>
Cc1cc(C)c(C)c(S(=O)(=O)NCc2ccc(C(=O)N3CCCCC3)cc2)c1C

>  <data_value>
90.2%

$$$$
>  <compound>
O=C(Nc1ccc(C(F)(F)F)cc1)N1CCN(c2ccnc3cc(Cl)ccc23)CC1

>  <data_value>
90.8%

$$$$
